assay_details: in vitro
run_parameters: human
Listed next: entries and their corresponding Papp A→B at 150 min, 25 μM.

compound	Papp A→B at 150 min, 25 μM / ×10⁻⁶ cm/s
Cn1c(=O)c2c(ncn2C)n(C)c1=O	28.9
COc1cc2nc(N3CCN(C(=O)c4ccco4)CC3)nc(N)c2cc1OC	6.16
NC(=O)N1c2ccccc2C=Cc2ccccc21 [carbamazepine]	27.7
CN1CCN(C2=Nc3cc(Cl)ccc3Nc3ccccc32)CC1	8.15

###

Tested on: NVU model (direct contact triculture with SH-SY5Y neurons)
run_parameters: human, 3 h, 50 μM
# flux listing for each entry below
value_type: flux (pg/cm^2·sec)

molecule	system_name	measured
COc1cc2nc(N3CCN(C(=O)c4ccco4)CC3)nc(N)c2cc1OC [prazosin]	NVU model (direct contact triculture with SH-SY5Y neurons)	166
Cn1c(=O)c2c(ncn2C)n(C)c1=O [caffeine]	NVU model (direct contact triculture with SH-SY5Y neurons)	269
CN1CCN(C2=Nc3cc(Cl)ccc3Nc3ccccc32)CC1 [clozapine]	NVU model (direct contact triculture with SH-SY5Y neurons)	372
NC(=O)N1c2ccccc2C=Cc2ccccc21 [carbamazepine]	NVU model (direct contact triculture with SH-SY5Y neurons)	310

###

assay_details: in vitro
run_parameters: human

molecule	viability at 3 h, 50 μM / %
Cn1c(=O)c2c(ncn2C)n(C)c1=O	159
CN1CCN(C2=Nc3cc(Cl)ccc3Nc3ccccc32)CC1	143
NC(=O)N1c2ccccc2C=Cc2ccccc21 [carbamazepine]	96

###

Recorded measurements of viability of the triculture (MTT), percent of the control, one per entry
Tested on: direct contact triculture
assay_details: Triculture cell viability assay (MTT)
Assay type: cell-based, human
run_parameters: following 3 hours of permeation; no significant change vs control (p>0.05)
value_type: viability of the triculture (MTT), percent of the control

molecule	measured
Cn1c(=O)c2c(ncn2C)n(C)c1=O	104±25%
CN1CCN(C2=Nc3cc(Cl)ccc3Nc3ccccc32)CC1	99±4%
COc1cc2nc(N3CCN(C(=O)c4ccco4)CC3)nc(N)c2cc1OC	82±6%
NC(=O)N1c2ccccc2C=Cc2ccccc21 [carbamazepine]	103±5%

###

assay_details: in vitro
run_parameters: human
Papp A→B at 180 min values for the compounds below.
value_type: Papp A→B at 180 min (×10⁻⁶ cm/s)

compound	measured
Cn1c(=O)c2c(ncn2C)n(C)c1=O [caffeine]	30.7
COc1cc2nc(N3CCN(C(=O)c4ccco4)CC3)nc(N)c2cc1OC [prazosin]	3.9
COc1ccc2[nH]cc(CCNC(C)=O)c2c1 [melatonin]	18.3
CN1CCN(C2=Nc3cc(Cl)ccc3Nc3ccccc32)CC1 [clozapine]	11.4
